# Test system: NCI-H2347
# METHOD NOTES: relative viability (nuclei count vs DMSO), 5 days (fraction); higher = more cells survive
# MEASUREMENT CONDITIONS: first compound 4 µM
Label y when relative viability is strictly below 0.9; otherwise label n.

# COMPOUND, STUDY SYSTEM, ASSIGNED CATEGORY
data = [
    ("Clc1ccc(Nc2nnc(Cc3ccncc3)c3ccccc23)cc1 [Vatalanib] + Cc1nc(Nc2ncc(C(=O)Nc3c(C)cccc3Cl)s2)cc(N2CCN(CCO)CC2)n1 [Dasatinib] (partner 0.075 µM)", "NCI-H2347", "y"),
    ("Clc1ccc(Nc2nnc(Cc3ccncc3)c3ccccc23)cc1 [Vatalanib] + Cc1nc(NC(=O)N2CCC[C@H]2C(N)=O)sc1-c1ccnc(C(C)(C)C(F)(F)F)c1 [Alpelisib] (partner 2 µM)", "NCI-H2347", "n"),
    ("C[C@@H]1CN(CC(=O)Nc2ccc3c(c2)Cc2cccc(-c4cc(=O)cc(N5CCOCC5)o4)c2S3)C[C@H](C)O1 + CC(=O)Nc1cccc(-n2c(=O)n(C3CC3)c(=O)c3c(Nc4ccc(I)cc4F)n(C)c(=O)c(C)c32)c1 [Trametinib] (partner 0.02 µM)", "NCI-H2347", "y"),
    ("Clc1ccc(Nc2nnc(Cc3ccncc3)c3ccccc23)cc1 [Vatalanib] + C[C@@H](Oc1cc(-c2cnn(C3CCNCC3)c2)cnc1N)c1c(Cl)ccc(F)c1Cl [Crizotinib] (partner 1 µM)", "NCI-H2347", "y"),
    ("COc1cc(N2CCC(C(N)=O)CC2)ccc1Nc1nc(N)c(Cl)c(Nc2ccccc2S(=O)(=O)C(C)C)n1 [HG-5-88-01] + Cc1nc(NC(=O)N2CCC[C@H]2C(N)=O)sc1-c1ccnc(C(C)(C)C(F)(F)F)c1 [Alpelisib] (partner 2 µM)", "NCI-H2347", "n"),
    ("COc1cc(N2CCC(C(N)=O)CC2)ccc1Nc1nc(N)c(Cl)c(Nc2ccccc2S(=O)(=O)C(C)C)n1 [HG-5-88-01] + CCNC(=O)c1noc(-c2cc(C(C)C)c(O)cc2O)c1-c1ccc(CN2CCOCC2)cc1 [Luminespib] (partner 0.01 µM)", "NCI-H2347", "y"),
    ("Clc1ccc(Nc2nnc(Cc3ccncc3)c3ccccc23)cc1 [Vatalanib] + O=C(CCCCCCC(=O)Nc1ccccc1)NO [Vorinostat] (partner 1 µM)", "NCI-H2347", "y"),
    ("C[C@@H]1CN(CC(=O)Nc2ccc3c(c2)Cc2cccc(-c4cc(=O)cc(N5CCOCC5)o4)c2S3)C[C@H](C)O1 + COc1cc2c(Oc3ccc(NC(=O)C4(C(=O)Nc5ccc(F)cc5)CC4)cc3F)ccnc2cc1OCCCN1CCOCC1 [Foretinib] (partner 0.25 µM)", "NCI-H2347", "n"),
    ("Clc1ccc(Nc2nnc(Cc3ccncc3)c3ccccc23)cc1 [Vatalanib] + C[C@]1(O)C[C@@H](c2nc(-c3ccc4ccc(-c5ccccc5)nc4c3)c3c(N)nccn32)C1 [Linsitinib] (partner 1 µM)", "NCI-H2347", "n"),
    ("COc1cc(N2CCC(C(N)=O)CC2)ccc1Nc1nc(N)c(Cl)c(Nc2ccccc2S(=O)(=O)C(C)C)n1 [HG-5-88-01] + CS(=O)(=O)N1CCN(Cc2cc3nc(-c4cccc5[nH]ncc45)nc(N4CCOCC4)c3s2)CC1 [Pictilisib] (partner 1 µM)", "NCI-H2347", "y"),
]
